- test-details: chemical genetic growth profiling, strain panel (AID 1159580);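 also: tested at 20 µM; growth read once vehicle control cultures reached saturation at 30 °C; 1 = growth at the plate median or of vehicle wells; lower values mean less growth of the strain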
- condition-details: S. cerevisiae deletion strains, growth OD, locus YMR263W, strain SAP30, active compounds read low
The whole screen tested about 5,500 compounds, of which about 2,000 (36%) were called active. Another 18% or so got no clear call; they are omitted. Some of the results follow.

{"compound": "CC(C)=CC1C(C(=O)O)C1(C)C (stereo not drawn)", "normalized growth": 1.01}
{"compound": "FC(F)(F)c1cc(-c2noc(C3CCc4ccccc4O3)n2)cc(C(F)(F)F)c1 (stereo not drawn)", "normalized growth": 0.993}
{"compound": "Cc1ccc2c(c1)C1(C)CCCC(C)(C(=O)O)C1CC2 (stereo not drawn)", "normalized growth": 0.973}

* * *

- test-details: chemical genetic growth profiling, strain panel (AID 1159580);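 also: tested at 20 µM; growth read once vehicle control cultures reached saturation at 30 °C; 1 = growth at the plate median or of vehicle wells; lower values mean less growth of the strain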
- condition-details: S. cerevisiae deletion strains, growth OD, locus YJL134W, strain LCB3
The whole screen tested about 5,500 compounds, of which about 2,000 (36%) were called active. Roughly 18% stayed inconclusive and do not appear here. Rule as the data show it: active = normalized growth mostly below about 0.91 (no sharp cut-off); inconclusive = no clear call, values can overlap the other calls; inactive = mostly above about 0.92. The list shows a part of the results.
Possible outcomes: active, inactive

{"compound": "CC(C)=CCCC(C)[C@@H]1CC[C@]2(C)C3=C(CC[C@@]12C)C1(C)CC[C@H](O)C(C)(C)C1CC3 (stereo not given in full)", "assigned-class": "active"}
{"compound": "CCCSc1ccc2nc(NC(=O)OC)[nH]c2c1", "assigned-class": "inactive"}
{"compound": "CC(C)CC1NC(=O)CNC1=O (stereo not given)", "assigned-class": "inactive"}
{"compound": "CN(C)CCCN1c2ccccc2CCc2ccccc21", "assigned-class": "inactive"}
{"compound": "CC(C)=CCc1c2c(c3occ(-c4ccc(O)c(O)c4)c(=O)c3c1O)C=CC(C)(C)O2", "assigned-class": "active"}
{"compound": "COc1ccc(C2Sc3ccccc3N(CCN(C)C)C(=O)C2OC(C)=O)cc1 (stereo not given)", "assigned-class": "inactive"}
{"compound": "CC(=O)O[C@H]1CCC2(C)C3=C(CCC2C1(C)C)[C@@]1(C)CC[C@@H](C(C)CCC=C(C)C)[C@]1(C)CC3 (stereo not given in full)", "assigned-class": "inactive"}
{"compound": "CC(=O)Oc1ccc(C(c2ccc(OC(C)=O)cc2)c2ccccn2)cc1", "assigned-class": "inactive"}
{"compound": "CN(C)CCCN1c2ccccc2CCc2ccc(Cl)cc21", "assigned-class": "inactive"}
{"compound": "C[C@H](CCC(=O)O)[C@H]1CCC2C3C(=O)CC4CC(=O)CC[C@]4(C)C3CC(=O)[C@@]21C (stereo not given in full)", "assigned-class": "inactive"}
{"compound": "CC1=CC(=O)c2ccccc2C1=O", "assigned-class": "active"}
{"compound": "CC(C)(C)NCC(O)c1ccc(O)c(CO)c1 (stereo not given)", "assigned-class": "inactive"}
{"compound": "CCCOc1ccc2nc(NC(=O)OC)[nH]c2c1", "assigned-class": "inactive"}
{"compound": "CC(C)CCCC(C)C1CC[C@@]2(C)C3=C(CC[C@]12C)[C@@]1(C)CC[C@H](O)C(C)(C)C1CC3 (stereo not given in full)", "assigned-class": "inactive"}
{"compound": "CN(C)CCCN1c2ccccc2Sc2ccccc21", "assigned-class": "inactive"}
{"compound": "CC(CCC(=O)O)[C@H]1CCC2C3CC[C@@H]4CC(=O)CC[C@]4(C)C3C=C[C@@]21C (stereo not given in full)", "assigned-class": "inactive"}
{"compound": "C/C1=C/CC(C)(C)/C=C/C/C(C)=C/CC1", "assigned-class": "inactive"}
{"compound": "CC(=O)Oc1ccc(/C=C/c2cc(OC(C)=O)cc(OC(C)=O)c2)cc1", "assigned-class": "inactive"}
{"compound": "Cc1c(C)c2c(c(C)c1O)CCC(C)(CCCC(C)CCCC(C)CCCC(C)C)O2 (stereo not given)", "assigned-class": "inactive"}
{"compound": "CC(CCc1ccccc1)NCC(O)c1ccc(O)c(C(N)=O)c1 (stereo not given)", "assigned-class": "inactive"}
